System: H1 human embryonic stem cells
TEST METHOD NOTES: Primary screening: definitive endoderm differentiation in the absence of activin A, cell number and SOX17 (Example 3)
Type: cell-based
MEASUREMENT SETUP: 2.5 μM compound, 20 ng/ml Wnt3a days 1-2, no activin A, four-day assay
Here, each record is paired with measured Sox17 Expression: Average Total Intensity data.
MEASURE NAME: Sox17 Expression: Average Total Intensity

| SAMPLE SMILES | ASSAYED SYSTEM | MEASUREMENT |
| --- | --- | --- |
| CC(C)(C)OC(=O)NCCc1cccc(Nc2ncnc(-c3ccnc(C#CCO)c3)n2)c1 | H1 human embryonic stem cells | −2.34E+06 |
| O=C1CCN2CCN(CC2)Cc2cccc(c2)Nc2ncnc(n2)-c2cncc(c2)CCCN1 | H1 human embryonic stem cells | −1.56E+06 |
| CCN1CC(=O)NCCCc2cc(ccc2F)-c2ncnc(n2)Nc2cc(Cl)cc(c2)C1 | H1 human embryonic stem cells | 4.03E+07 |
| CN1CCC(=O)NCCCNc2cccc(c2)-c2ncnc(n2)Nc2cccc(c2)C1 | H1 human embryonic stem cells | −1.96E+06 |

====

System: H1 human embryonic stem cells
TEST METHOD NOTES: Primary screening: definitive endoderm differentiation in the absence of activin A, cell number and SOX17 (Example 3)
Type: cell-based
MEASUREMENT SETUP: Table 2 hit subset of primary screening, 2.5 μM, no activin A
MEASURE NAME: Cell Number, % of positive control

| MOLECULE | MEASUREMENT |
| --- | --- |
| O=C1NCCCc2cncc(c2)-c2ncnc(n2)Nc2cc(Cl)cc(c2)CN2CCCC1C2 (stereo not shown) [Compound 37] | 129.3 % of positive control |
| O=C1CCN2CCN(CC2)Cc2cc(Cl)cc(c2)Nc2ncnc(n2)-c2cncc(c2)CCCN1 [Compound 34] | 114.8 % of positive control |
| O=C1NCCCc2cncc(c2)-c2ncnc(n2)Nc2cccc(c2)CN2CCC1CC2 [Compound 22] | 132.7 % of positive control |
| CCN1CC(=O)NCCCc2cncc(c2)-c2ncnc(n2)Nc2cc(Cl)cc(c2)C1 [Compound 35] | 158.7 % of positive control |
| CCN1CCCc2cccc(c2)-c2ncnc(n2)Nc2cccc(c2)CCNC(=O)C1 [Compound 29] | 136.0 % of positive control |
| O=C1NCCCc2cncc(c2)-c2ncnc(n2)Nc2cccc(c2)CN2CCCC1C2 (stereo not shown) [Compound 17] | 133.8 % of positive control |
| CN1CCC(=O)NCCCNc2ncccc2-c2ncnc(n2)Nc2cccc(c2)C1 [Compound 39] | 147.0 % of positive control |

====

System: H1 human embryonic stem cells
TEST METHOD NOTES: Secondary assay: panel of compounds with growth factor combinations and muscimol, no activin A (Example 6, Table 5)
Type: cell-based
MEASUREMENT SETUP: no AA (with Wnt3a); FGF4 + PDGF-A + VEGF
Here, each record is paired with measured Sox17 Expression, Average Total Intensity data.
MEASURE NAME: Sox17 Expression, Average Total Intensity

| COMPOUND | MEASUREMENT |
| --- | --- |
| CCN1CCCc2cccc(c2)-c2ncnc(n2)Nc2cccc(c2)CCNC(=O)C1 [Compound 29] | −4.82E+06 |
| O=C1NCCCc2cncc(c2)-c2ncnc(n2)Nc2cccc(c2)CN2CCC1CC2 [Compound 22] | 4.90E+06 |
| CN1CCC(=O)NCCCNc2ncccc2-c2ncnc(n2)Nc2cccc(c2)C1 [Compound 39] | 7.01E+05 |
| CCN1CC(=O)NCCCc2cncc(c2)-c2ncnc(n2)Nc2cc(Cl)cc(c2)C1 [Compound 35] | 3.92E+07 |
| O=C1NCCCc2cncc(c2)-c2ncnc(n2)Nc2cccc(c2)CN2CCCC1C2 (stereo not shown) [Compound 17] | 1.29E+07 |
| O=C1NCCCc2cncc(c2)-c2ncnc(n2)Nc2cc(Cl)cc(c2)CN2CCCC1C2 (stereo not shown) [Compound 37] | −1.10E+07 |
| O=C1CCN2CCN(CC2)Cc2cc(Cl)cc(c2)Nc2ncnc(n2)-c2cncc(c2)CCCN1 [Compound 34] | 1.15E+07 |

====

System: H1 human embryonic stem cells
TEST METHOD NOTES: Compounds and growth factors with low dose activin A (Example 9, Table 9)
Assay type: cell-based
MEASUREMENT SETUP: 10 ng/ml AA + compound + Wnt3a
Decide by Cell Number, Average Total Cell Number: equal to or exceeding 500 means fulfilled, less means not fulfilled.

| COMPOUND | CLASS ASSIGNMENT |
| --- | --- |
| O=C1NCCCc2cncc(c2)-c2ncnc(n2)Nc2cc(Cl)cc(c2)CN2CCCC1C2 (stereo not drawn) [Compound 37] | fulfilled |
| O=C1NCCCc2cncc(c2)-c2ncnc(n2)Nc2cccc(c2)CN2CCC1CC2 [Compound 22] | fulfilled |
| O=C1CCN2CCN(CC2)Cc2cc(Cl)cc(c2)Nc2ncnc(n2)-c2cncc(c2)CCCN1 [Compound 34] | fulfilled |
| CN1CCC(=O)NCCCNc2ncccc2-c2ncnc(n2)Nc2cccc(c2)C1 [Compound 39] | fulfilled |
| CCN1CCCc2cccc(c2)-c2ncnc(n2)Nc2cccc(c2)CCNC(=O)C1 [Compound 29] | fulfilled |
| CCN1CC(=O)NCCCc2cncc(c2)-c2ncnc(n2)Nc2cc(Cl)cc(c2)C1 [Compound 35] | not fulfilled |

====

Here, each record is paired with measured Sox17 Expression, Average Total Intensity data.
System: H1 human embryonic stem cells
TEST METHOD NOTES: Secondary assay: panel of compounds with growth factor combinations and muscimol, no activin A (Example 6, Table 5)
Format: cell-based
MEASUREMENT SETUP: no AA (with Wnt3a); EGF + FGF4 + PDGF-A + VEGF
Experimental: Clusters of H1 human embryonic stem cells were grown on reduced growth factor […]™ (Invitrogen; Cat #356231)-coated tissue culture plastic. […] Segmentation for the nuclei was determined based on grayscale levels (baseline range 100-300) and nuclear size. Averages and standard deviations were calculated for each replicate data set. Total SOX17 protein expression was reported as total intensity or integrated intensity, defined as total fluorescence of the cell multiplied by the area of the cell. […]
MEASURE NAME: Sox17 Expression, Average Total Intensity

| COMPOUND | ASSAYED SYSTEM | MEASUREMENT |
| --- | --- | --- |
| CCN1CC(=O)NCCCc2cncc(c2)-c2ncnc(n2)Nc2cc(Cl)cc(c2)C1 [Compound 35] | H1 human embryonic stem cells | 9.11E+07 |
| O=C1NCCCc2cncc(c2)-c2ncnc(n2)Nc2cccc(c2)CN2CCC1CC2 [Compound 22] | H1 human embryonic stem cells | 7.88E+06 |
| O=C1NCCCc2cncc(c2)-c2ncnc(n2)Nc2cccc(c2)CN2CCCC1C2 (stereo not shown) [Compound 17] | H1 human embryonic stem cells | 8.97E+06 |
| CCN1CCCc2cccc(c2)-c2ncnc(n2)Nc2cccc(c2)CCNC(=O)C1 [Compound 29] | H1 human embryonic stem cells | −7.15E+06 |
| O=C1CCN2CCN(CC2)Cc2cc(Cl)cc(c2)Nc2ncnc(n2)-c2cncc(c2)CCCN1 [Compound 34] | H1 human embryonic stem cells | 5.01E+07 |
| CN1CCC(=O)NCCCNc2ncccc2-c2ncnc(n2)Nc2cccc(c2)C1 [Compound 39] | H1 human embryonic stem cells | 5.30E+06 |
| O=C1NCCCc2cncc(c2)-c2ncnc(n2)Nc2cc(Cl)cc(c2)CN2CCCC1C2 (stereo not shown) [Compound 37] | H1 human embryonic stem cells | 1.39E+05 |

====

Here, each record is paired with measured Sox17 Intensity % of positive control data.
System: H1 human embryonic stem cells
TEST METHOD NOTES: Primary screening: definitive endoderm differentiation in the absence of activin A, cell number and SOX17 (Example 3)
Format: cell-based
MEASUREMENT SETUP: Table 2 hit subset of primary screening, 2.5 μM, no activin A
Method: Briefly, clusters of H1 human embryonic stem cells were grown on reduced growth factor […]™ (Invitrogen; Cat #1356231)-coated tissue culture plastic. […] Imaging was performed using an IN Cell Analyzer 1000 (GE Healthcare) utilizing the 51008bs dichroic for cells stained with Hoechst 33342 and Alexa Fluor 488. […] Segmentation for the nuclei was determined based on gray-scale levels (baseline range 100-300) and nuclear size. […]

| COMPOUND | Sox17 Intensity % of positive control |
| --- | --- |
| O=C1CCN2CCN(CC2)Cc2cc(Cl)cc(c2)Nc2ncnc(n2)-c2cncc(c2)CCCN1 [Compound 34] | 44.5 % of positive control |
| O=C1NCCCc2cncc(c2)-c2ncnc(n2)Nc2cc(Cl)cc(c2)CN2CCCC1C2 (stereo not drawn) [Compound 37] | 29.1 % of positive control |
| CCN1CC(=O)NCCCc2cncc(c2)-c2ncnc(n2)Nc2cc(Cl)cc(c2)C1 [Compound 35] | 86.8 % of positive control |

The measurements presented in this section are drawn from patent US9593305B2.
